B1: HDV Ribozyme (parent)
chain: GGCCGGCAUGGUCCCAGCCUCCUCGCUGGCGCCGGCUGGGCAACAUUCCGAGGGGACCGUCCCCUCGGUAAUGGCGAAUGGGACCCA

Variants of: B1
Experiment: self-cleavage, relative activity (ratio to wild type); higher = more cleavage; co-transcriptional
Categorize each record by its self-cleavage using bucket A = under 0.1, bucket B = from 0.1 up to 0.4, bucket C = 0.4 and over

Task: Sort into band: G34U C62G
Output: bucket B

Task: Follow-up entry: G17C G25C
Output: bucket A

Task: Another variant: G40C G55C
Output: bucket B

Task: Similarly, G28U U47G ?
Output: bucket A

Task: G10U A42C , same question.
Output: bucket B

Task: Then this variant: C4U U47C
Output: bucket C

Task: Query G59U G67C next
Output: bucket C

Task: Same lookup for C4A G28A , please.
Output: bucket A

Task: Please answer likewise for A16C C36G
Output: bucket A

Task: Subsequent entry: U23A U46C
Output: bucket C

Task: Lookup C30G A78U
Output: bucket A

Task: Try the variant G2C G38A
Output: bucket A

Task: Now give it for G11C G59U too.
Output: bucket B

Task: Same question, G17A U69G this time
Output: bucket C

Task: Param item: C61G U69G
Output: bucket C

Task: Check G10U U20A too.
Output: bucket A

Task: Request: C13G U20G
Output: bucket A

Task: Same read-out for U72A C85U ?
Output: bucket C

Task: Then this variant: G5A G54C
Output: bucket B

Task: Same again, this time with G59C U79C
Output: bucket C

Task: What about this variant? C32A C33A
Output: bucket B

Task: Another variant to check: C36U U65A
Output: bucket C

Task: Also need G34C G80U , thanks.
Output: bucket B

Task: Now the same for C41G A51C
Output: bucket C

Task: Could you do the same for A16C U72G , please?
Output: bucket B

Task: Another variant: U27G G35A
Output: bucket B

Task: Also, U23C U46C please.
Output: bucket C

Task: What do we get for C3G U27C ?
Output: bucket B

Task: Repeat for the following variant: U9C C18U
Output: bucket C

Task: And what about the variant C49A U65A ?
Output: bucket C

Task: What do you have for G10A C49A ?
Output: bucket C

Task: Further, for G1C G6U ?
Output: bucket B

Task: One more variant: G2C G73C
Output: bucket B

Task: Same thing, different variant: A45U U65C
Output: bucket C

Task: Same lookup for G80U C86A , please.
Output: bucket B

Task: Same again, this time with C49G U79G
Output: bucket C

Task: Another variant to look at: U79A G82A
Output: bucket B

Task: Follow-up entry: C66A G73U
Output: bucket B

Task: Now the same for G31C A51U
Output: bucket B

Task: Okay, and G1U A83C ?
Output: bucket B

Task: Also U12G G29U , if possible.
Output: bucket A

Task: Ok, now C18U U79A
Output: bucket B
